Reference for the values: ChEMBL document CHEMBL4130414

# test description: Cytotoxicity against human Hep2 cells assessed as reduction in cell viability after 3 days by MTT assay
# Type: cell-based
# cond: HEp-2 cells
value type: CC50 at 72 h (mg/L)

>>> result_number("CCCC[C@H](CCn1cncn1)c1ccc(C)cc1")
23.7
>>> result_number("CCCC[C@@H](CCn1cncn1)c1ccc(C)cc1")
60.7
>>> result_number("CCC[C@H](CCn1cncn1)c1ccccc1")
58.4
>>> result_number("CCCC[C@@H](CCn1cncn1)c1ccc(OC)cc1")
31.6
>>> result_number("CCCC[C@H](CCn1cncn1)c1ccc(OC)cc1")
34.5
>>> result_number("CCCC[C@@H](CCn1cncn1)c1ccc(F)cc1")
36
>>> result_number("CCCC[C@@H](CCn1cncn1)c1ccccc1")
40.8

====

# Tested on: Enterovirus A71
# test description: Antiviral activity against EV71 Xiangyang-Hubei-09 infected in human RD cells assessed as inhibition of virus-induced cytopathic effect by MTT dye based assay
# Type: functional, organism-based
# cond: rd
value type: EC50

>>> result("CC[C@H](CCn1cncn1)c1ccc(Cl)cc1")
"Not Active"
>>> result("c1ccc(C(CCn2cncn2)C2CCCCC2)cc1 (single isomer, unassigned; 40)")
"Not Active"
>>> result("CCCC[C@@H](CCn1cncn1)c1ccccc1")
"Not Active"
>>> result("CCCC[C@@H](CCn1cncn1)c1ccc(C)cc1")
"Not Active"
>>> result("CC[C@H](CCn1cncn1)c1ccc(F)cc1")
"Not Active"
>>> result("c1ccc(C(CCn2cncn2)C2CCCCC2)cc1 (single isomer, unassigned; 39)")
"Not Active"
>>> result("Cc1ccc(C[C@H](CCn2cncn2)c2ccccc2)cc1")
"Not Active"
>>> result("CC[C@@H](CCn1cncn1)c1ccc(F)cc1")
"Not Active"

====

# test description: Cytotoxicity against human Hep2 cells assessed as reduction in cell viability after 3 days by MTT assay
# Type: cell-based
# cond: HEp-2 cells
value type: log10 CC50 at 72 h (log10 of the value in µg/mL)

>>> result_number("CCC[C@@H](CCn1cncn1)c1ccc(C)cc1")
1.85
>>> result_number("Clc1ccc([C@H](CCn2cncn2)Cc2ccccc2)c(Cl)c1")
0.69
>>> result_number("Clc1ccc([C@@H](CCn2cncn2)Cc2ccccc2)cc1")
1.41
>>> result_number("CC[C@H](CCn1cncn1)c1ccc(OC)cc1")
2.18
>>> result_number("c1ccc(C(CCn2cncn2)C2CCCCC2)cc1 (single isomer, unassigned; 40)")
1.34
>>> result_number("c1ccc(C(CCn2cncn2)C2CCCCC2)cc1 (single isomer, unassigned; 39)")
1.39
>>> result_number("CCCC[C@@H](CCn1cncn1)c1ccc(Cl)cc1")
1.23
>>> result_number("Cc1ccc(C[C@H](CCn2cncn2)c2ccccc2)cc1")
1.59
>>> result_number("CCC[C@H](CCn1cncn1)c1ccc(C)cc1")
1.66
>>> result_number("CCCC[C@H](CCn1cncn1)c1ccc(Cl)cc1")
1.31
>>> result_number("c1ccc(C[C@@H](CCn2cncn2)c2ccccc2)cc1")
1.75
>>> result_number("CCCC[C@H](CCn1cncn1)c1ccc(Cl)cc1Cl")
1.13

====

# test description: Cytotoxicity against human RD cells assessed as reduction in cell viability after 3 days by MTT assay
# Format: cell-based
value type: CC50 at 72 h (µg/mL)

>>> result_number("Cc1ccc(C(CCn2cncn2)C2CCCCC2)cc1 (single isomer, unassigned)")
57.9
>>> result_number("CCCC[C@H](CCn1cncn1)c1ccc(Cl)cc1Cl")
10.1
>>> result_number("Cc1ccc([C@@H](CCn2cncn2)Cc2ccccc2)cc1")
109
>>> result_number("CCCC[C@H](CCn1cncn1)c1ccc(OC)cc1")
28.3
>>> result_number("CCC[C@@H](CCn1cncn1)c1ccc(C)cc1")
74.1
>>> result_number("Clc1ccc([C@H](CCn2cncn2)Cc2ccccc2)cc1")
21.7
>>> result_number("CC[C@H](CCn1cncn1)c1ccc(Cl)cc1")
57
>>> result_number("CCCC[C@@H](CCn1cncn1)c1ccc(OC)cc1")
39.4
>>> result_number("c1ccc(C(CCn2cncn2)C2CCCCC2)cc1 (single isomer, unassigned; 40)")
9.2
>>> result_number("Clc1ccc([C@@H](CCn2cncn2)Cc2ccccc2)c(Cl)c1")
6.5
>>> result_number("Clc1ccc([C@@H](CCn2cncn2)Cc2ccccc2)cc1")
24.4

====

# test description: Selectivity index, ratio of CC50 for human HEP2 cells to EC50 for Coxsackievirus B3 (strain Nancy) infected in human HEP cells
# Assay type: toxicity, cell-based
# cond: HEp-2 cells, read-out: Ratio CC50/EC50
// selectivity ratio lookup, one value per entry
value type: selectivity ratio

>>> result_number("CC[C@@H](CCn1cncn1)c1ccc(C)cc1")
11.7
>>> result_number("CC[C@H](CCn1cncn1)c1ccc(Cl)cc1")
3.7
>>> result_number("CC[C@H](CCn1cncn1)c1ccc(C)cc1")
6.2
>>> result_number("CC[C@@H](CCn1cncn1)c1ccc(Cl)cc1")
5.2
>>> result_number("NC(=O)c1ncn([C@@H]2O[C@H](CO)[C@@H](O)[C@H]2O)n1")
13.3
>>> result_number("Cc1ccc(C(CCn2cncn2)C2CCCCC2)cc1 (single isomer, unassigned)")
4.9
